- Protocol text: Comparative stability test (total impurity content)
- Type: physicochemical
- Test context: 25° C., 60% relative humidity, packed; 1 month
Metric name: total impurity content % at 1 month (%)
Record the value in %, omitting the unit from your answer.

Consider the following illustrative entries.
molecule="CCOc1nc2cccc(C(=O)OC(C)OC(=O)OCc3nc(C)c(C)nc3C)c2n1Cc1ccc(-c2ccccc2-c2noc(=O)[n-]2)cc1.[K+] (stereo not shown) [crystalline form III]" result_units=% value=2.55
molecule="CCOc1nc2cccc(C(=O)OC(C)OC(=O)OCc3nc(C)c(C)nc3C)c2n1Cc1ccc(-c2ccccc2-c2noc(=O)[n-]2)cc1.[K+] (stereo not shown) [crystalline form II]" result_units=% value=1.43
molecule="CCOc1nc2cccc(C(=O)OC(C)OC(=O)OCc3nc(C)c(C)nc3C)c2n1Cc1ccc(-c2ccccc2-c2noc(=O)[n-]2)cc1.[K+] (stereo not shown) [crystalline form I]" result_units=% value=1.62

Read the next record carefully.
Ask: Look up total impurity content % at 1 month for this molecule: CCOc1nc2cccc(C(=O)OC(C)OC(=O)OCc3nc(C)c(C)nc3C)c2n1Cc1ccc(-c2ccccc2-c2noc(=O)[n-]2)cc1.[K+] (stereo not shown) [mixture of crystalline form I and II]
Reply: 1.58

====

- Protocol text: Comparative stability test (total impurity content)
- Format: physicochemical
- Test context: 25° C., 60% relative humidity, packed; 6 months
Metric name: total impurity content % at 6 months (%)
Record the value in %, omitting the unit from your answer.

Ask: Look up total impurity content % at 6 months for this compound: CCOc1nc2cccc(C(=O)OC(C)OC(=O)OCc3nc(C)c(C)nc3C)c2n1Cc1ccc(-c2ccccc2-c2noc(=O)[n-]2)cc1.[K+] (stereo not shown) [crystalline form III]
Reply: 3.76

Ask: Look up total impurity content % at 6 months for this compound: CCOc1nc2cccc(C(=O)OC(C)OC(=O)OCc3nc(C)c(C)nc3C)c2n1Cc1ccc(-c2ccccc2-c2noc(=O)[n-]2)cc1.[K+] (stereo not shown) [crystalline form II]
Reply: 1.87

Ask: Look up total impurity content % at 6 months for this compound: CCOc1nc2cccc(C(=O)OC(C)OC(=O)OCc3nc(C)c(C)nc3C)c2n1Cc1ccc(-c2ccccc2-c2noc(=O)[n-]2)cc1.[K+] (stereo not shown) [mixture of crystalline form I and II]
Reply: 3.29

Ask: Look up total impurity content % at 6 months for this compound: CCOc1nc2cccc(C(=O)OC(C)OC(=O)OCc3nc(C)c(C)nc3C)c2n1Cc1ccc(-c2ccccc2-c2noc(=O)[n-]2)cc1.[K+] (stereo not shown) [crystalline form I]
Reply: 3.10

====

- Protocol text: Comparative stability test (total impurity content)
- Type: physicochemical
- Test context: 25° C., 60% relative humidity, packed; 0 months
Metric name: total impurity content % at 0 months (%)
Record the value in %, omitting the unit from your answer.

compound="CCOc1nc2cccc(C(=O)OC(C)OC(=O)OCc3nc(C)c(C)nc3C)c2n1Cc1ccc(-c2ccccc2-c2noc(=O)[n-]2)cc1.[K+] (stereo not shown) [crystalline form III]" result_units=% value=1.56
compound="CCOc1nc2cccc(C(=O)OC(C)OC(=O)OCc3nc(C)c(C)nc3C)c2n1Cc1ccc(-c2ccccc2-c2noc(=O)[n-]2)cc1.[K+] (stereo not shown) [mixture of crystalline form I and II]" result_units=% value=0.90
compound="CCOc1nc2cccc(C(=O)OC(C)OC(=O)OCc3nc(C)c(C)nc3C)c2n1Cc1ccc(-c2ccccc2-c2noc(=O)[n-]2)cc1.[K+] (stereo not shown) [crystalline form II]" result_units=% value=1.29

Read the next record carefully.
Ask: Look up total impurity content % at 0 months for this compound: CCOc1nc2cccc(C(=O)OC(C)OC(=O)OCc3nc(C)c(C)nc3C)c2n1Cc1ccc(-c2ccccc2-c2noc(=O)[n-]2)cc1.[K+] (stereo not shown) [crystalline form I]
Reply: 1.11
